- PROTOCOL: Primary salt screen: XRPD post temperature cycling/evaporation, post drying and post storage at 40° C./75% RH
- Assay type: physicochemical
- CONDITION SUMMARY: Compound A + 1.05 eq. counterion (= label); THF; dried under vacuum at 40° C.
ASSAY READOUT: XRPD results post drying

>>> recorded_value("O=C(O)C(O)C(O)C(=O)O (stereo not drawn) [l-Tartaric acid]")
"A e"
>>> recorded_value("O=C(O)/C=C/C(=O)O [Fumaric acid]")
"A e"
>>> recorded_value("O=C(O)CC(=O)O [Malonic acid]")
"A e"
>>> recorded_value("O=C(O)CC(O)(CC(=O)O)C(=O)O [Citric acid]")
"A e"
>>> recorded_value("O=S(=O)(O)c1ccccc1 [Benzenesulfonic acid]")
"A t"
>>> recorded_value("O=C(O)/C=C\\C(=O)O [Maleic acid]")
"A e"
>>> recorded_value("O=C(O)C[C@H](O)C(=O)O [l-Malic acid]")
"A e"

###

- PROTOCOL: Thermodynamic solubility determination in buffers (HPLC)
- Format: physicochemical
- CONDITION SUMMARY: buffer, 25 °C, pH 4, aqueous buffer, thermodynamic from solid, Buffer pH 4.0, LOQ 0.00025 mg/mL
ASSAY READOUT: solubility at 0 h

>>> recorded_value("COc1cc(O[C@H]2C(C)(C)[C@H](NC(=O)c3ccc(N4CCC(CN5CCN(c6ccc(C(=O)N[C@H]7CCC(=O)NC7=O)c(F)c6)CC5)CC4)cc3)C2(C)C)ccc1C#N [free base Pattern 1]")
"< 0.25 µg/mL"

###

- PROTOCOL: Primary salt screen: XRPD post temperature cycling/evaporation, post drying and post storage at 40° C./75% RH
- Type: physicochemical
- CONDITION SUMMARY: Compound A + 1.05 eq. counterion (= label); DMSO:Water (50:50 % v/v); stored ca. 20 hours
ASSAY READOUT: XRPD results post 40° C./75% RH

>>> recorded_value("O=C(O)/C=C\\C(=O)O [Maleic acid]")
"A t"
>>> recorded_value("O=S(=O)(O)c1ccccc1 [Benzenesulfonic acid]")
"A e h"
>>> recorded_value("CC(=O)O [Acetic acid]")
"A t h"
>>> recorded_value("Cc1ccc(S(=O)(=O)O)cc1 [p-Toluenesulfonic acid]")
"A t"
>>> recorded_value("O=C(O)CC(O)(CC(=O)O)C(=O)O [Citric acid]")
"A t"
>>> recorded_value("CS(=O)(=O)O [Methanesulfonic acid]")
"A t"

###

- PROTOCOL: Solvent solubility screen of Compound A (aliquot addition, HPLC of saturated solutions)
- Assay type: physicochemical
- CONDITION SUMMARY: dimethylsulfoxide, organic solvent or mixture, thermodynamic from solid, Dimethylsulfoxide; read-out: Approximate Solubility
ASSAY READOUT: solubility (mg/mL)

>>> recorded_value("COc1cc(O[C@H]2C(C)(C)[C@H](NC(=O)c3ccc(N4CCC(CN5CCN(c6ccc(C(=O)N[C@H]7CCC(=O)NC7=O)c(F)c6)CC5)CC4)cc3)C2(C)C)ccc1C#N")
100

###

- PROTOCOL: Solvent solubility screen of Compound A (aliquot addition, HPLC of saturated solutions)
- Format: physicochemical
- CONDITION SUMMARY: N-methylpyrrolidone, organic solvent or mixture, thermodynamic from solid, N-Methylpyrrolidone; read-out: Approximate Solubility
ASSAY READOUT: solubility (mg/mL)

>>> recorded_value("COc1cc(O[C@H]2C(C)(C)[C@H](NC(=O)c3ccc(N4CCC(CN5CCN(c6ccc(C(=O)N[C@H]7CCC(=O)NC7=O)c(F)c6)CC5)CC4)cc3)C2(C)C)ccc1C#N")
50

###

- PROTOCOL: Solvent solubility screen of Compound A (aliquot addition, HPLC of saturated solutions)
- Assay type: physicochemical
- CONDITION SUMMARY: acetone:water (90:10% v/v), 40 °C, organic solvent or mixture, thermodynamic from solid, Acetone:Water (90:10% v/v); read-out: Approximate Solubility
- Description: A known volume aliquot (typically 5 volumes) of solvent was added to approximately 5 mg of Compound A. See Table 14 for the selected solvents for the solvent solubility screen. Between each addition, the mixture was checked for dissolution and where no dissolution was apparent, the mixture was heated to ca. 40° C. and checked again. […] Where dissolution was not observed, solids were isolated centrifugally and analyzed by XRPD. The saturated solutions were analyzed by HPLC to obtain the solubility.
ASSAY READOUT: solubility (µg/mL)

>>> recorded_value("COc1cc(O[C@H]2C(C)(C)[C@H](NC(=O)c3ccc(N4CCC(CN5CCN(c6ccc(C(=O)N[C@H]7CCC(=O)NC7=O)c(F)c6)CC5)CC4)cc3)C2(C)C)ccc1C#N [Compound A]")
5680

###

- PROTOCOL: Thermodynamic solubility determination in buffers (HPLC)
- Format: physicochemical
- CONDITION SUMMARY: buffer, 25 °C, pH 3, aqueous buffer, thermodynamic from solid, Buffer pH 3.0, LOQ 0.00025 mg/mL
ASSAY READOUT: solubility at 24 h

>>> recorded_value("COc1cc(O[C@H]2C(C)(C)[C@H](NC(=O)c3ccc(N4CCC(CN5CCN(c6ccc(C(=O)N[C@H]7CCC(=O)NC7=O)c(F)c6)CC5)CC4)cc3)C2(C)C)ccc1C#N [tosylate Pattern 1]")
"< 0.25 µg/mL"

###

- PROTOCOL: Thermodynamic solubility determination in buffers (HPLC)
- Type: physicochemical
- CONDITION SUMMARY: buffer, 25 °C, pH 4, aqueous buffer, thermodynamic from solid, Buffer pH 4.0, LOQ 0.00025 mg/mL
ASSAY READOUT: solubility at 24 h

>>> recorded_value("COc1cc(O[C@H]2C(C)(C)[C@H](NC(=O)c3ccc(N4CCC(CN5CCN(c6ccc(C(=O)N[C@H]7CCC(=O)NC7=O)c(F)c6)CC5)CC4)cc3)C2(C)C)ccc1C#N [free base Pattern 1]")
"< 0.25 µg/mL"

###

- PROTOCOL: Solvent solubility screen of Compound A (aliquot addition, HPLC of saturated solutions)
- Assay type: physicochemical
- CONDITION SUMMARY: 2-Butanone (MEK), 40 °C, organic solvent or mixture, thermodynamic from solid, 2-Butanone (MEK); read-out: Approximate Solubility
ASSAY READOUT: solubility (µg/mL)

>>> recorded_value("COc1cc(O[C@H]2C(C)(C)[C@H](NC(=O)c3ccc(N4CCC(CN5CCN(c6ccc(C(=O)N[C@H]7CCC(=O)NC7=O)c(F)c6)CC5)CC4)cc3)C2(C)C)ccc1C#N [Compound A]")
2130

###

- PROTOCOL: Primary salt screen: XRPD post temperature cycling/evaporation, post drying and post storage at 40° C./75% RH
- Assay type: physicochemical
- CONDITION SUMMARY: Compound A + 1.05 eq. counterion (= label); DCM; dried under vacuum at 40° C.
ASSAY READOUT: XRPD results post drying

>>> recorded_value("Cc1ccc(S(=O)(=O)O)cc1")
"A e"
>>> recorded_value("O=C(O)/C=C/C(=O)O")
"A e"
>>> recorded_value("N[C@@H](CCC(=O)O)C(=O)O")
"C e"
>>> recorded_value("O=C(O)CCC(=O)O")
"A e d"
>>> recorded_value("O=C(O)/C=C\\C(=O)O")
"A e d"
>>> recorded_value("O=C(O)C(O)C(O)C(=O)O (stereo not drawn)")
"A e"
>>> recorded_value("O=C(O)CC(O)(CC(=O)O)C(=O)O")
"A e"
>>> recorded_value("O=C(O)C[C@H](O)C(=O)O")
"A e"
>>> recorded_value("O=C(O)CC(=O)O")
"A e"
>>> recorded_value("CS(=O)(=O)O")
"A e"
>>> recorded_value("O=S(=O)(O)c1ccccc1")
"A e"
>>> recorded_value("O=C(O)c1ccccc1")
"A e"

###

- PROTOCOL: Solvent solubility screen of Compound A (aliquot addition, HPLC of saturated solutions)
- Format: physicochemical
- CONDITION SUMMARY: 3-Methyl-1-butanol, 40 °C, organic solvent or mixture, thermodynamic from solid, 3-Methyl-1-butanol; read-out: Approximate Solubility
ASSAY READOUT: solubility

>>> recorded_value("COc1cc(O[C@H]2C(C)(C)[C@H](NC(=O)c3ccc(N4CCC(CN5CCN(c6ccc(C(=O)N[C@H]7CCC(=O)NC7=O)c(F)c6)CC5)CC4)cc3)C2(C)C)ccc1C#N")
"1220 µg/mL"

###

- PROTOCOL: Solvent solubility screen of Compound A (aliquot addition, HPLC of saturated solutions)
- Assay type: physicochemical
- CONDITION SUMMARY: THF, organic solvent or mixture, thermodynamic from solid, THF; read-out: Approximate solubility
ASSAY READOUT: solubility

>>> recorded_value("COc1cc(O[C@H]2C(C)(C)[C@H](NC(=O)c3ccc(N4CCC(CN5CCN(c6ccc(C(=O)N[C@H]7CCC(=O)NC7=O)c(F)c6)CC5)CC4)cc3)C2(C)C)ccc1C#N")
"~50 mg/mL"

Origin of values: patent US20240336566A1
